Kindly state viability, T/C for each of the entries shown.
System: 556581-035-R-J1-PDC complex spheroid viability
Assay: Anticancer human tumor 556581-035-R-J1-PDC patient-derived ovarian carcinoma cell line growth inhibition
Settings: second compound 0.316 µM; first compound 0.003 µM; stronger effect = lower value
One number for each entry, in %.

Known viability, T/C results, listed for orientation:
{"columns": ["Compound", "Readout Unit", "viability, T/C"],
 "data": [
  ["CCc1c2c(nc3ccc(O)cc13)-c1cc3c(c(=O)n1C2)COC(=O)[C@]3(O)CC + NC1CC1c1ccc(-c2cccc(O)c2)cc1", "%", 11.4],
  ["Nc1ccn(C2OC(CO)C(O)C2(F)F)c(=O)n1 (stereo unspecified) + NC1CCC(NC2CC2c2ccccc2)CC1", "%", 45.8],
  ["Nc1ccn(C2OC(CO)C(O)C2(F)F)c(=O)n1 (stereo unspecified) + NC1CC1c1ccc(-c2cccc(O)c2)cc1", "%", 30.7],
  ["CCc1c2c(nc3ccc(O)cc13)-c1cc3c(c(=O)n1C2)COC(=O)[C@]3(O)CC + NC1CCC(NC2CC2c2ccccc2)CC1", "%", 12.4],
  ["Nc1ncn(C2CC(O)C(CO)S2)c(=O)n1 (stereo unspecified) + NC1CCC(NC2CC2c2ccccc2)CC1", "%", 94.8]
]}

--- query ---
Reported viability, T/C of Nc1ncn(C2CC(O)C(CO)S2)c(=O)n1 (stereo unspecified) + NC1CC1c1ccc(-c2cccc(O)c2)cc1 : 80

---

System: 556581-035-R-J1-PDC complex spheroid viability
Assay: Anticancer human tumor 556581-035-R-J1-PDC cell line growth inhibition;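 also: spheroids exposed to agents for seven days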
Settings: curve of first compound; second compound 0.1 µM
Label key: Y means IC50 under 0.2 µM; N means IC50 of 0.2 µM or more.

Examples with answers:
{"columns": ["Compound", "Category"],
 "data": [
  ["COc1ccc([C@@H](O)c2cc(-c3ncnc4cc(N5CCOCC5)ccc34)c(F)cc2Cl)nn1 + NC1CCC(NC2CC2c2ccccc2)CC1", "N"],
  ["CC[C@@]1(O)C(=O)OCc2c1cc1n(c2=O)Cc2cc3c(CN(C)C)c(O)ccc3nc2-1 + NC1CCC(NC2CC2c2ccccc2)CC1", "Y"],
  ["Nc1ccccc1NC(=O)c1ccc(CNC(=O)OCc2cccnc2)cc1 + NC1CC1c1ccc(-c2cccc(O)c2)cc1", "Y"]
]}

Q) is_below(IC50, 0.2 µM) for Nc1ccccc1NC(=O)c1ccc(CNC(=O)OCc2cccnc2)cc1 + NC1CCC(NC2CC2c2ccccc2)CC1 ?
A) Y

Q) is_below(IC50, 0.2 µM) for COc1cc(C2c3cc4c(cc3C(OC3OC5COC(C)OC5C(O)C3O)C3COC(=O)C23)OCO4)cc(OC)c1O (configuration not stated) + NC1CC1c1ccc(-c2cccc(O)c2)cc1 ?
A) Y

Q) is_below(IC50, 0.2 µM) for O=C(c1cc(Cc2n[nH]c(=O)c3ccccc23)ccc1F)N1CCN(C(=O)C2CC2)CC1 + NC1CCC(NC2CC2c2ccccc2)CC1 ?
A) N

Q) is_below(IC50, 0.2 µM) for CC(C)CC(NC(=O)C(Cc1ccccc1)NC(=O)c1cnccn1)B(O)O (configuration not stated) + NC1CC1c1ccc(-c2cccc(O)c2)cc1 ?
A) Y

---

Test system: 556581-035-R-J1-PDC complex spheroid viability
Experiment: Anticancer human tumor 556581-035-R-J1-PDC cell line growth inhibition; active = viability on the fitted dose curve at most 10% of control; inactive = the rest;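 also: spheroids exposed to agents for seven days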
Conditions: second compound 10 µM; first compound 0.00316 µM
Use one of these outcomes when replying: 1 (active), -1 (inactive)

{"columns": ["Compound", "Category"],
 "data": [
  ["CC(C)CC(NC(=O)CNC(=O)c1cc(Cl)ccc1Cl)B1OC(=O)CC(CC(=O)O)(C(=O)O)O1 (stereo unspecified) + NC1CCC(NC2CC2c2ccccc2)CC1", -1],
  ["CC1COCCN1c1cc(-c2ccnn2C)c2ccnc(-c3ccn[nH]3)c2n1 (stereo unspecified) + NC1CCC(NC2CC2c2ccccc2)CC1", -1],
  ["Cn1ncnc1C1c2n[nH]c(=O)c3cc(F)cc(c23)NC1c1ccc(F)cc1 (stereo unspecified) + NC1CCC(NC2CC2c2ccccc2)CC1", -1],
  ["COc1cc(Nc2ncc3c(n2)-c2ccc(Cl)cc2C(c2c(F)cccc2OC)=NC3)ccc1C(=O)O + NC1CCC(NC2CC2c2ccccc2)CC1", -1],
  ["O=C(C=Cn1cnc(-c2cc(C(F)(F)F)cc(C(F)(F)F)c2)n1)NNc1cnccn1 + NC1CC1c1ccc(-c2cccc(O)c2)cc1", -1]
]}

Q) Can you look up the reported call for Nc1ncn(C2CC(O)C(CO)O2)c(=O)n1 (stereo unspecified) + NC1CC1c1ccc(-c2cccc(O)c2)cc1 for me?
A) -1

Q) Can you look up the reported call for CC[C@@]1(O)C(=O)OCc2c1cc1n(c2=O)Cc2cc3c(CN(C)C)c(O)ccc3nc2-1 + NC1CCC(NC2CC2c2ccccc2)CC1 for me?
A) -1

Q) Can you look up the reported call for Cn1ncnc1C1c2n[nH]c(=O)c3cc(F)cc(c23)NC1c1ccc(F)cc1 (stereo unspecified) + NC1CC1c1ccc(-c2cccc(O)c2)cc1 for me?
A) -1

Q) Can you look up the reported call for CC[C@@]1(O)C(=O)OCc2c1cc1n(c2=O)Cc2cc3c(CN(C)C)c(O)ccc3nc2-1 + NC1CC1c1ccc(-c2cccc(O)c2)cc1 for me?
A) -1

Q) Can you look up the reported call for CC(C)CC(NC(=O)C(Cc1ccccc1)NC(=O)c1cnccn1)B(O)O (stereo unspecified) + NC1CC1c1ccc(-c2cccc(O)c2)cc1 for me?
A) 1

Q) Can you look up the reported call for O=C(C=Cn1cnc(-c2cc(C(F)(F)F)cc(C(F)(F)F)c2)n1)NNc1cnccn1 + NC1CCC(NC2CC2c2ccccc2)CC1 for me?
A) -1

Q) Can you look up the reported call for COc1cc(Nc2ncc3c(n2)-c2ccc(Cl)cc2C(c2c(F)cccc2OC)=NC3)ccc1C(=O)O + NC1CC1c1ccc(-c2cccc(O)c2)cc1 for me?
A) -1

Q) Can you look up the reported call for CC(C)CC(NC(=O)CNC(=O)c1cc(Cl)ccc1Cl)B1OC(=O)CC(CC(=O)O)(C(=O)O)O1 (stereo unspecified) + NC1CC1c1ccc(-c2cccc(O)c2)cc1 for me?
A) -1

Q) Can you look up the reported call for CC(C)CC(NC(=O)C(Cc1ccccc1)NC(=O)c1cnccn1)B(O)O (stereo unspecified) + NC1CCC(NC2CC2c2ccccc2)CC1 for me?
A) 1

Q) Can you look up the reported call for CC1COCCN1c1cc(-c2ccnn2C)c2ccnc(-c3ccn[nH]3)c2n1 (stereo unspecified) + NC1CC1c1ccc(-c2cccc(O)c2)cc1 for me?
A) -1

Q) Can you look up the reported call for Nc1ncn(C2CC(O)C(CO)O2)c(=O)n1 (stereo unspecified) + NC1CCC(NC2CC2c2ccccc2)CC1 for me?
A) -1

---

Kindly state viability, T/C for each of the entries shown.
Tested on: 556581-035-R-J1-PDC complex spheroid viability
Assay: Anticancer human tumor 556581-035-R-J1-PDC cell line growth inhibition;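 also: spheroids exposed to agents for seven days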;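 as to viability, T/C: 100% = DMSO vehicle control wells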
Conditions: second compound 1 µM; first compound 0.01 µM; stronger effect = lower value
One number for each entry, in %.

Record viability, T/C per entry; entries follow.
1. O=C(C=Cn1cnc(-c2cc(C(F)(F)F)cc(C(F)(F)F)c2)n1)NNc1cnccn1 + NC1CCC(NC2CC2c2ccccc2)CC1
2. O=C(C=Cn1cnc(-c2cc(C(F)(F)F)cc(C(F)(F)F)c2)n1)NNc1cnccn1 + NC1CC1c1ccc(-c2cccc(O)c2)cc1
3. CC(C)CC(NC(=O)C(Cc1ccccc1)NC(=O)c1cnccn1)B(O)O (centres undefined) + NC1CC1c1ccc(-c2cccc(O)c2)cc1
4. COc1cc(Nc2ncc3c(n2)-c2ccc(Cl)cc2C(c2c(F)cccc2OC)=NC3)ccc1C(=O)O + NC1CC1c1ccc(-c2cccc(O)c2)cc1

A)
1: 74.7; 2: 74.2; 3: 0.1; 4: 49

---

Test system: 556581-035-R-J1-PDC complex spheroid viability
Test: Anticancer human tumor 556581-035-R-J1-PDC cell line growth inhibition;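 also: spheroids exposed to agents for seven days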;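 as to viability, T/C: 100% = DMSO vehicle control wells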
Conditions: second compound 3.16 µM; first compound 1 µM; stronger effect = lower value
Kindly state viability, T/C for each of the entries shown.
Answers are plain numbers, in %.

Known viability, T/C results, listed for orientation:
{"columns": ["Compound", "Test Value"],
 "data": [
  ["COc1cc(Nc2ncc3c(n2)-c2ccc(Cl)cc2C(c2c(F)cccc2OC)=NC3)ccc1C(=O)O + NC1CCC(NC2CC2c2ccccc2)CC1", 35.3],
  ["COc1cc(Nc2ncc3c(n2)-c2ccc(Cl)cc2C(c2c(F)cccc2OC)=NC3)ccc1C(=O)O + NC1CC1c1ccc(-c2cccc(O)c2)cc1", 42.5],
  ["O=C(C=Cn1cnc(-c2cc(C(F)(F)F)cc(C(F)(F)F)c2)n1)NNc1cnccn1 + NC1CCC(NC2CC2c2ccccc2)CC1", 25.3]
]}

Reported viability, T/C of Nc1ncn(C2CC(O)C(CO)O2)c(=O)n1 (centres undefined) + NC1CC1c1ccc(-c2cccc(O)c2)cc1 : 69.1
